Tmax listing for selected compounds.
method: compound was evaluated for pharmacokinetic parameter, Tmax
Type: ADME, organism-based
recorded_conditions: in vivo

>  <compound>
Cc1cc(SC2=C(O)OC(CCc3ccsc3)(C(C)C)CC2=O)c(C(C)(C)C)cc1CO (stereo not given)

>  <Tmax [min]>
30

$$$$
>  <compound>
Cc1cc(SC2=C(O)OC(CCc3nccs3)(C(C)C)CC2=O)c(C(C)(C)C)cc1CO (stereo not given)

>  <Tmax [min]>
15

$$$$
>  <compound>
Cc1cc(SC2=C(O)OC(CCc3scnc3C)(C(C)C)CC2=O)c(C(C)(C)C)cc1CO (stereo not given)

>  <Tmax [min]>
15

$$$$
>  <compound>
Cc1cc(SC2=C(O)O[C@](CCc3ccsc3)(C(C)C)CC2=O)c(C(C)(C)C)cc1CO

>  <Tmax [min]>
30

$$$$
>  <compound>
Cc1cc(SC2=C(O)O[C@](CCc3ccc(N)cc3)(C(C)C)CC2=O)c(C(C)(C)C)cc1CO

>  <Tmax [min]>
30

$$$$

###

Cmax listing for selected compounds.
method: Compound was evaluated for pharmacokinetic parameter, Cmax
Assay type: ADME, organism-based
recorded_conditions: in vivo

>  <compound>
Cc1cc(SC2=C(O)OC(CCc3ccoc3)(C(C)C)CC2=O)c(C(C)(C)C)cc1CO (stereo not given)

>  <Cmax, µM>
54.4

$$$$
>  <compound>
Cc1cc(SC2=C(O)O[C@](CCc3ccc(N)cc3)(C(C)C)CC2=O)c(C(C)(C)C)cc1CO

>  <Cmax, µM>
26.5

$$$$
>  <compound>
Cc1cc(SC2=C(O)OC(CCc3ccc(N)cc3)(C(C)C)CC2=O)c(C(C)(C)C)cc1CO (racemic)

>  <Cmax, µM>
23

$$$$
>  <compound>
Cc1cc(SC2=C(O)OC(CCc3ccsc3)(C(C)C)CC2=O)c(C(C)(C)C)cc1CO (stereo not given)

>  <Cmax, µM>
39.6

$$$$
>  <compound>
Cc1cc(SC2=C(O)OC(CCc3nccs3)(C(C)C)CC2=O)c(C(C)(C)C)cc1CO (stereo not given)

>  <Cmax, µM>
33

$$$$

###

method: Toxicity measured in CEM cells in the absence of virus.
Format: cell-based
recorded_conditions: human, CEM cells (CCRF-CEM); read-out: TC50 (the source's name)

>  <compound>
Cc1cc(SC2=C(O)OC(CCc3ccc(CO)s3)(C(C)C)CC2=O)c(C(C)(C)C)cc1CO (stereo unspecified)

>  <operator>
=

>  <CC50, µM>
182

$$$$
>  <compound>
Cc1csc(CCC2(C(C)C)CC(=O)C(Sc3cc(C)c(CO)cc3C(C)(C)C)=C(O)O2)n1 (stereo unspecified)

>  <operator>
=

>  <CC50, µM>
171

$$$$
>  <compound>
Cc1cc(SC2=C(O)OC(CCc3nc(C(C)C)cs3)(C(C)C)CC2=O)c(C(C)(C)C)cc1CO (stereo unspecified)

>  <operator>
=

>  <CC50, µM>
84

$$$$
>  <compound>
Cc1cc(SC2=C(O)OC(CCc3cnc(N)nc3)(C(C)C)CC2=O)c(C(C)(C)C)cc1CO (stereo unspecified)

>  <operator>
>

>  <CC50, µM>
200

$$$$
>  <compound>
Cc1cc(SC2=C(O)OC(CCc3csc(C(C)C)n3)(C(C)C)CC2=O)c(C(C)(C)C)cc1CO (stereo unspecified)

>  <operator>
=

>  <CC50, µM>
91

$$$$
>  <compound>
Cc1cnc(CCC2(C(C)C)CC(=O)C(Sc3cc(C)c(CO)cc3C(C)(C)C)=C(O)O2)s1 (stereo unspecified)

>  <operator>
=

>  <CC50, µM>
210

$$$$
>  <compound>
CC(=O)Nc1nc(CCC2(C(C)C)CC(=O)C(Sc3cc(C)c(CO)cc3C(C)(C)C)=C(O)O2)cs1 (stereo unspecified)

>  <operator>
=

>  <CC50, µM>
210

$$$$
>  <compound>
Cc1nc(CCC2(C(C)C)CC(=O)C(Sc3cc(C)c(CO)cc3C(C)(C)C)=C(O)O2)cs1 (stereo unspecified)

>  <operator>
=

>  <CC50, µM>
210

$$$$
>  <compound>
Cc1cc(SC2=C(O)OC(CCc3ccc(N)cc3)(C(C)C)CC2=O)c(C(C)(C)C)cc1CO (racemic)

>  <operator>
>

>  <CC50, µM>
100

$$$$
>  <compound>
Cc1cc(SC2=C(O)OC(CCc3c[nH]c4ccccc34)(C(C)C)CC2=O)c(C(C)(C)C)cc1CO (stereo unspecified)

>  <operator>
=

>  <CC50, µM>
46

$$$$
>  <compound>
Cc1cc(SC2=C(O)OC(CCc3ccsc3CO)(C(C)C)CC2=O)c(C(C)(C)C)cc1CO (stereo unspecified)

>  <operator>
=

>  <CC50, µM>
200

$$$$
>  <compound>
Cc1cc(SC2=C(O)OC(CCc3ccoc3)(C(C)C)CC2=O)c(C(C)(C)C)cc1CO (stereo unspecified)

>  <operator>
=

>  <CC50, µM>
199

$$$$
>  <compound>
Cc1cc(SC2=C(O)OC(CCc3cccs3)(C(C)C)CC2=O)c(C(C)(C)C)cc1CO (stereo unspecified)

>  <operator>
=

>  <CC50, µM>
81

$$$$
>  <compound>
Cc1cc(SC2=C(O)OC(CCc3cscc3C)(C(C)C)CC2=O)c(C(C)(C)C)cc1CO (stereo unspecified)

>  <operator>
=

>  <CC50, µM>
51

$$$$
>  <compound>
Cc1cc(SC2=C(O)OC(CCc3scnc3C(C)C)(C(C)C)CC2=O)c(C(C)(C)C)cc1CO (stereo unspecified)

>  <operator>
=

>  <CC50, µM>
102

$$$$
>  <compound>
Cc1cc(SC2=C(O)OC(CCc3ncsc3C)(C(C)C)CC2=O)c(C(C)(C)C)cc1CO (stereo unspecified)

>  <operator>
=

>  <CC50, µM>
208

$$$$
>  <compound>
Cc1cc(SC2=C(O)OC(CCc3nccs3)(C(C)C)CC2=O)c(C(C)(C)C)cc1CO (stereo unspecified)

>  <operator>
=

>  <CC50, µM>
216

$$$$
>  <compound>
Cc1cc(SC2=C(O)OC(CCc3ccco3)(C(C)C)CC2=O)c(C(C)(C)C)cc1CO (stereo unspecified)

>  <operator>
=

>  <CC50, µM>
190

$$$$
>  <compound>
Cc1cc(SC2=C(O)OC(CCc3cncs3)(C(C)C)CC2=O)c(C(C)(C)C)cc1CO (stereo unspecified)

>  <operator>
=

>  <CC50, µM>
229

$$$$
>  <compound>
Cc1cc(SC2=C(O)OC(CCc3ncsc3C(C)C)(C(C)C)CC2=O)c(C(C)(C)C)cc1CO (stereo unspecified)

>  <operator>
=

>  <CC50, µM>
52

$$$$
>  <compound>
Cc1cc(SC2=C(O)OC(CCc3ccncc3)(C(C)C)CC2=O)c(C(C)(C)C)cc1CO (stereo unspecified)

>  <operator>
=

>  <CC50, µM>
296

$$$$
>  <compound>
Cc1cc(SC2=C(O)OC(CCc3cncnc3)(C(C)C)CC2=O)c(C(C)(C)C)cc1CO (stereo unspecified)

>  <operator>
>

>  <CC50, µM>
200

$$$$
>  <compound>
Cc1cc(SC2=C(O)OC(CCc3scnc3C)(C(C)C)CC2=O)c(C(C)(C)C)cc1CO (stereo unspecified)

>  <operator>
=

>  <CC50, µM>
164

$$$$
>  <compound>
Cc1cc(SC2=C(O)O[C@](CCc3ccsc3)(C(C)C)CC2=O)c(C(C)(C)C)cc1CO

>  <operator>
=

>  <CC50, µM>
91

$$$$
>  <compound>
Cc1cc(SC2=C(O)OC(CCc3ccsc3)(C(C)C)CC2=O)c(C(C)(C)C)cc1CO (stereo unspecified)

>  <operator>
=

>  <CC50, µM>
110

$$$$
>  <compound>
Cc1cc(SC2=C(O)OC(CCc3c[nH]cn3)(C(C)C)CC2=O)c(C(C)(C)C)cc1CO (stereo unspecified)

>  <operator>
=

>  <CC50, µM>
200

$$$$
>  <compound>
Cc1cc(SC2=C(O)OC(CCc3nc4ccccc4s3)(C(C)C)CC2=O)c(C(C)(C)C)cc1CO (stereo unspecified)

>  <operator>
=

>  <CC50, µM>
62

$$$$
>  <compound>
Cc1cc(SC2=C(O)OC(CCc3sccc3C)(C(C)C)CC2=O)c(C(C)(C)C)cc1CO (stereo unspecified)

>  <operator>
=

>  <CC50, µM>
80

$$$$
>  <compound>
Cc1cc(SC2=C(O)O[C@](CCc3ccc(N)cc3)(C(C)C)CC2=O)c(C(C)(C)C)cc1CO

>  <operator>
=

>  <CC50, µM>
210

$$$$
>  <compound>
Cc1cc(SC2=C(O)OC(CCc3ccccn3)(C(C)C)CC2=O)c(C(C)(C)C)cc1CO (stereo unspecified)

>  <operator>
=

>  <CC50, µM>
249

$$$$
>  <compound>
Cc1cc(SC2=C(O)OC(CCc3cscn3)(C(C)C)CC2=O)c(C(C)(C)C)cc1CO (stereo unspecified)

>  <operator>
=

>  <CC50, µM>
141

$$$$
>  <compound>
Cc1cc(SC2=C(O)OC(CCc3csc(N)n3)(C(C)C)CC2=O)c(C(C)(C)C)cc1CO (stereo unspecified)

>  <operator>
>

>  <CC50, µM>
200

$$$$
>  <compound>
Cc1cc(SC2=C(O)OC(CCc3csc(CO)c3)(C(C)C)CC2=O)c(C(C)(C)C)cc1CO (stereo unspecified)

>  <operator>
=

>  <CC50, µM>
210

$$$$
>  <compound>
Cc1cc(SC2=C(O)OC(CCc3cc[nH]n3)(C(C)C)CC2=O)c(C(C)(C)C)cc1CO (stereo unspecified)

>  <operator>
=

>  <CC50, µM>
320

$$$$
>  <compound>
Cc1cc(SC2=C(O)O[C@@](CCc3ccsc3)(C(C)C)CC2=O)c(C(C)(C)C)cc1CO

>  <operator>
=

>  <CC50, µM>
95

$$$$
>  <compound>
Cc1cc(SC2=C(O)OC(CCc3ccc4[nH]ccc4c3)(C(C)C)CC2=O)c(C(C)(C)C)cc1CO (stereo unspecified)

>  <operator>
=

>  <CC50, µM>
46

$$$$

Values were extracted from ChEMBL document CHEMBL1134529.
